- System: M19-MEL melanoma
- EXPERIMENTAL DETAILS: NCI tumour cell line growth inhibition, 48 h
ASSAY READOUT: TGI

input: I am curious: what TGI value has been reported for Ic1cc2c(cc1C1SCCCS1)OCO2 ?
output: > 100 µM

input: I am curious: what TGI value has been reported for Cc1ccc(NC(=O)/C(Cl)=C(/Cl)C(=O)O)cc1 ?
output: 29.5 µM

input: I am curious: what TGI value has been reported for NCCNCc1c2ccccc2c(CNCCN)c2ccccc12 ?
output: 84.4 µM

input: I am curious: what TGI value has been reported for Clc1ccc(-c2c(C3=NCCCN3)nnn2-c2ccccc2)cc1 ?
output: > 100 µM

input: I am curious: what TGI value has been reported for CC#CC1C2CCCC1(CSc1ccccc1)NC(=O)O2 (configuration not stated) ?
output: > 100 µM

input: I am curious: what TGI value has been reported for CC(=O)[CH-]C(=O)c1ccccc1.CC(=O)[CH-]C(=O)c1ccccc1.C[C@]12CCC(=O)C=C1CC[C@@H]1C2CC[C@@]2(C)C1CC[C@@H]2[O-].C[C@]12CCC(=O)C=C1CC[C@@H]1C2CC[C@@]2(C)C1CC[C@@H]2[O-].Cl.[Ti+4] (some centres not stated) ?
output: 96.9 µM

input: I am curious: what TGI value has been reported for C=C(C(=C)P(=S)(c1ccccc1)c1ccccc1)P(=S)(c1ccccc1)c1ccccc1 ?
output: > 100 µM

input: I am curious: what TGI value has been reported for c1ccc2c(c1)N=C(c1cccc3ccccc13)CC(c1ccc3c(c1)OCO3)S2 (configuration not stated) ?
output: > 100 µM

input: I am curious: what TGI value has been reported for COC(=O)C(Cc1nc2ccccc2nc1C)/C(=N\NC(N)=O)C(=O)Nc1cccc([N+](=O)[O-])c1 (configuration not stated) ?
output: > 100 µM

input: I am curious: what TGI value has been reported for OCc1c[te]c(-c2ccccc2)c1 ?
output: > 100 µM

input: I am curious: what TGI value has been reported for CC1=CC(N2C(=O)C(C)=CC2O)NC1=O (configuration not stated) ?
output: > 100 µM

input: I am curious: what TGI value has been reported for CN1CCN(c2ccc3nc(-c4ccc5nc(-c6ccc(O)cc6)[nH]c5c4)[nH]c3c2)CC1 ?
output: 283 µM

---

- Tested on: HCT-116 colon
- EXPERIMENTAL DETAILS: NCI tumour cell line growth inhibition, 48 h
ASSAY READOUT: TGI

input: I am curious: what TGI value has been reported for COC1OC(COC(=O)c2cc(O)c(O)c(O)c2)C(OC(=O)c2cc(O)c(O)c(O)c2)C(OC(=O)c2cc(O)c(O)c(O)c2)C1OC(=O)c1cc(O)c(O)c(O)c1 (centres undefined) ?
output: > 100 µM

input: I am curious: what TGI value has been reported for O=C1CC(=O)NC(=NNS(=O)(=O)c2ccccc2)N1 ?
output: > 100 µM

input: I am curious: what TGI value has been reported for O=C1C=CC(=O)c2c1ccc1c3ccccc3n(Cc3cccc([N+](=O)[O-])c3)c21 ?
output: > 62.7 µM

input: I am curious: what TGI value has been reported for Cc1ccc(NC(=O)/C(Cl)=C(/Cl)C(=O)O)cc1 ?
output: 28.2 µM

input: I am curious: what TGI value has been reported for CC(=O)[CH-]C(=O)c1ccccc1.CC(=O)[CH-]C(=O)c1ccccc1.C[C@]12CCC(=O)C=C1CC[C@@H]1C2CC[C@@]2(C)C1CC[C@@H]2[O-].C[C@]12CCC(=O)C=C1CC[C@@H]1C2CC[C@@]2(C)C1CC[C@@H]2[O-].Cl.[Ti+4] (some centres undefined) ?
output: > 100 µM

input: I am curious: what TGI value has been reported for CC(=O)Oc1ccc(/C(=C(\C)c2ccc(Cl)cc2)c2ccc(OCCN3CCCCC3)cc2)cc1 ?
output: 2.72 µM

input: I am curious: what TGI value has been reported for O=C1C=CC(=O)c2c1ccc1c3ccccc3n(-c3ccccc3[N+](=O)[O-])c21 ?
output: > 25.3 µM

input: I am curious: what TGI value has been reported for COc1cc(-c2c(C#N)c(N)nc(N3CCOCC3)c2C#N)cc(OC)c1OC ?
output: > 100 µM

input: I am curious: what TGI value has been reported for Fc1ccc(-c2sc(-c3cccs3)cc2Cc2cccs2)cc1 ?
output: > 100 µM

---

- System: HCT-15 colon
- EXPERIMENTAL DETAILS: NCI tumour cell line growth inhibition, 48 h
Lab note: anything with TGI at or over 40 µM counts as condition met; the rest go in condition not met.

input: Could you please find out whether O=C(O)CCCc1ccc2ccccc2c1 has TGI that meets 40 µM or exceeds it?
output: condition met

input: Could you please find out whether Cc1ccc(S(=O)c2sccc2C=O)cc1 (centres undefined) has TGI that meets 40 µM or exceeds it?
output: condition met

input: Could you please find out whether Cc1cc(C(C)(C)C)cc(CNC2CCCCC2)c1O has TGI that meets 40 µM or exceeds it?
output: condition not met

input: Could you please find out whether Cc1ccc(NC(=O)/C(Cl)=C(/Cl)C(=O)O)cc1 has TGI that meets 40 µM or exceeds it?
output: condition not met

input: Could you please find out whether Clc1ccc(OCc2nnc3n2N=C(c2ccc(Cl)cc2Cl)CS3)cc1 has TGI that meets 40 µM or exceeds it?
output: condition not met

input: Could you please find out whether Cc1cc(S(=O)(=O)/N=C(/[N-]S(=O)(=O)c2ccc(Cl)cc2)[n+]2ccc(N(C)C)cc2)c(SCC(=O)O)cc1Cl has TGI that meets 40 µM or exceeds it?
output: condition met

input: Could you please find out whether CSc1ccc(/C=C2\N=C(c3ccccc3)N(c3nc4cc(C)c(C)cc4s3)C2=O)cc1 has TGI that meets 40 µM or exceeds it?
output: condition met

input: Could you please find out whether OCCN1CCN2C=C(C3CCCC4N(CCO)CCN34)CCC21 (centres undefined) has TGI that meets 40 µM or exceeds it?
output: condition met

input: Could you please find out whether CC(=O)[CH-]C(=O)c1ccccc1.CC(=O)[CH-]C(=O)c1ccccc1.C[C@]12CCC(=O)C=C1CC[C@@H]1C2CC[C@@]2(C)C1CC[C@@H]2[O-].C[C@]12CCC(=O)C=C1CC[C@@H]1C2CC[C@@]2(C)C1CC[C@@H]2[O-].Cl.[Ti+4] (some centres undefined) has TGI that meets 40 µM or exceeds it?
output: condition met

---

Give TGI for every item shown.
- System: SK-MEL-2 melanoma
- EXPERIMENTAL DETAILS: NCI tumour cell line growth inhibition, 48 h

input: I am curious: what TGI value has been reported for COc1cc([C@@H]2C[C@H]2c2cc(SC)n[nH]2)cc(OC)c1OC ?
output: 67.2 µM

input: I am curious: what TGI value has been reported for O=c1ssc(Cl)c1Cl ?
output: > 10 µM

input: I am curious: what TGI value has been reported for Cn1c(=O)c(Oc2ccc(F)cc2F)cc2cnc(NC3CCS(=O)(=O)CC3)nc21 ?
output: > 25 µM

input: I am curious: what TGI value has been reported for COC(=O)C1(C(=O)OC)N=C(C)OC1/C=C/c1ccccc1 (configuration not stated) ?
output: > 100 µM

input: I am curious: what TGI value has been reported for Cn1c(NCC(O)CN2CCCC2)cc(=O)n(C)c1=O (configuration not stated) ?
output: > 100 µM

input: I am curious: what TGI value has been reported for O=C1C=CC(=O)c2c1ccc1c3ccccc3n(Cc3cccc([N+](=O)[O-])c3)c21 ?
output: > 100 µM

input: I am curious: what TGI value has been reported for NCCNCc1c2ccccc2c(CNCCN)c2ccccc12 ?
output: 29.1 µM

input: I am curious: what TGI value has been reported for COc1cc(C(=O)N/N=C/c2ccc(N(C)C)cc2)cc(OC)c1OC ?
output: > 81.3 µM

input: I am curious: what TGI value has been reported for NCC1OC(OC2C(CO)OC(OC3C(O)C(N)CC(N)C3OC3OC(CO)C(O)CC3N)C2O)C(N)C(O)C1OC1OC(CO)C(O)C(O)C1O (configuration not stated) ?
output: > 50 µg/mL

input: I am curious: what TGI value has been reported for CN1CCN(Cc2ccc(NC(=O)c3cccc(C#Cc4cnc(N)c5ncccc45)c3F)cc2C(F)(F)F)CC1 ?
output: 1.94 µM

input: I am curious: what TGI value has been reported for O=C(CSc1nc2ccc(I)cc2c(=O)n1Cc1ccccc1)NNC(=O)c1ccccc1 ?
output: 19.2 µM

input: I am curious: what TGI value has been reported for CC(=O)c1cc(C(=O)c2ccc3c(c2)Sc2ccccc2N3)c2cc(C)ccn12 ?
output: > 100 µM

input: I am curious: what TGI value has been reported for c1ccc2c(c1)N=C(c1cccc3ccccc13)CC(c1ccc3c(c1)OCO3)S2 (configuration not stated) ?
output: > 100 µM

input: I am curious: what TGI value has been reported for CCCCCCCCn1ccc2cc(NC(=O)Cn3cc(CN4CCCCC4)nn3)ccc21 ?
output: 3.68 µM

input: I am curious: what TGI value has been reported for O=C1c2cccc(NCCN=Cc3ccccc3O)c2C(=O)c2c(NCCN=Cc3ccccc3O)cccc21 ?
output: 3.67 µM

input: I am curious: what TGI value has been reported for O=C(/C(=C\c1ccc(Cl)cc1)c1ccccc1)c1ccccc1 ?
output: 75 µM

input: I am curious: what TGI value has been reported for COc1cc2c(cc1OC)C1Cc3cc(OC)c(OC)cc3C(C2)N1C ?
output: > 100 µM

input: I am curious: what TGI value has been reported for O=C(c1ccco1)c1c(C(F)(F)F)n([O-])c2ccc(Cl)cc2[n+]1=O ?
output: 9.78 µM

input: I am curious: what TGI value has been reported for Fc1ccc(-c2sc(-c3cccs3)cc2Cc2cccs2)cc1 ?
output: > 100 µM

input: I am curious: what TGI value has been reported for COC1=CC(c2ccc[nH]2)=N/C1=C\c1[nH]c(C)c(C(=O)CCCCC(=O)Oc2ccc3c(c2)CCC2C3CC[C@]3(C)[C@@H](O)CC[C@@H]23)c1C (some centres not stated) ?
output: > 100 µM

input: I am curious: what TGI value has been reported for O=C1OCC2=C1C(c1ccc(Cl)c(Cl)c1)c1cc3c(cc1N2CCO)CCC3 (configuration not stated) ?
output: 6.89 µM

input: I am curious: what TGI value has been reported for CCOP(=O)(OCC)/C(C#N)=C/c1cnc[nH]1 ?
output: > 100 µM

input: I am curious: what TGI value has been reported for O=C(CNC(c1ccccc1)(c1ccccc1)c1ccccc1)NC1CCCCC1NC(=O)CNC(c1ccccc1)(c1ccccc1)c1ccccc1 (configuration not stated) ?
output: > 100 µM

input: I am curious: what TGI value has been reported for COC(=O)[C@H](CC(C)C)Nc1c(O)c2c(c(O)c1Cl)C(=O)C=CC2=O ?
output: > 10 µM

input: I am curious: what TGI value has been reported for CC(=O)Nc1ccc(COC(O)CN2CCCCC2)cc1[N+](=O)[O-] (configuration not stated) ?
output: > 100 µM

input: I am curious: what TGI value has been reported for Cc1cc(C(C)(C)C)cc(CNC2CCCCC2)c1O ?
output: 34 µM

input: I am curious: what TGI value has been reported for COc1ccc2nc3ccc(OC)cc3c(SCc3ccccc3)c2c1 ?
output: > 100 µM
